Source of measurements: patent US20230089073A1

- Subject Of Test: human GLP-1 receptor (Homo sapiens, UniProt P43220)
- Construct: expressed in transfected cells
- Sequence (P43220 24-463): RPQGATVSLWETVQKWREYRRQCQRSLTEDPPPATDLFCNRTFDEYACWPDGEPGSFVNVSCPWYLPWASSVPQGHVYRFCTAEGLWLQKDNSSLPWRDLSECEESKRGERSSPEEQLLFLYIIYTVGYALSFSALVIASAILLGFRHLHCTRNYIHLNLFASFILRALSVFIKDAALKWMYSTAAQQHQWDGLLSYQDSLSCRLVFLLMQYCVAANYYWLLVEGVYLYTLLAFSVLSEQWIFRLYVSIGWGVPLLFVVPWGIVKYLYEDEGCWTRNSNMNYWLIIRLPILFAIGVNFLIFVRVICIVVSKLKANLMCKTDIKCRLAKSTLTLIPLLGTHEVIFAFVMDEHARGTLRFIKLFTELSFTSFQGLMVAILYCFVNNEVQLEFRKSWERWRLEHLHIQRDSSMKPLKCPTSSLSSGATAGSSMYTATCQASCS
- Method Description: GLP-1R cAMP Assay
- Assay type: cell-based
- Stated Conditions: cAMP accumulation in CHO cells stably overexpressing the human GLP-1 receptor; 30 min treatment; HitHunter cAMP kit; read-out: EC50
Metric: EC50

| Chemical String | EC50 |
| --- | --- |
| O=C(O)c1cc(F)c2nc(CN3CCC(Oc4cccc(COc5ccc(C(F)F)cc5F)c4)CC3)n(C[C@@H]3CCO3)c2c1 | < 50 nM |

Please state recorded EC50 (tested on human GLP-1 receptor (Homo sapiens, UniProt P43220)) of `O=C(O)c1cc(F)c2nc(CN3CCC(Oc4ccnc(COc5ccc(C(F)F)cc5F)c4)CC3)n(C[C@@H]3CCO3)c2c1`
< 50 nM

Please state recorded EC50 (tested on human GLP-1 receptor (Homo sapiens, UniProt P43220)) of `O=C(O)c1cc(F)c2nc(CN3CCC(Oc4ccnc(COc5cc(F)c(F)cc5F)n4)CC3)n(C[C@@H]3CCO3)c2c1`
< 50 nM

Please state recorded EC50 (tested on human GLP-1 receptor (Homo sapiens, UniProt P43220)) of `O=C(O)c1cc(F)c2nc(CN3CCC(Oc4ccnc(COc5ccc(F)cc5F)n4)CC3)n(C[C@@H]3CCO3)c2c1`
< 50 nM

Please state recorded EC50 (tested on human GLP-1 receptor (Homo sapiens, UniProt P43220)) of `C[C@H]1C[C@@H](Oc2ccnc(COc3ccc(C(F)(F)F)cc3F)n2)CCN1Cc1nc2ccc(C(=O)O)cc2n1C[C@@H]1CCO1`
< 50 nM

Please state recorded EC50 (tested on human GLP-1 receptor (Homo sapiens, UniProt P43220)) of `O=C(O)c1ccc2nc(CN3CCN(C(=O)c4ccc(OCc5ccc(Cl)cc5Cl)o4)CC3)n(C[C@@H]3CCO3)c2c1`
> 500 nM

###

- Subject Of Test: human GLP-1 receptor (Homo sapiens)
- Construct: expressed in transfected cells
- Method Description: GLP-1R cAMP Assay
- Type: cell-based
- Stated Conditions: cAMP accumulation in CHO cells stably overexpressing the human GLP-1 receptor; 30 min treatment; HitHunter cAMP kit; read-out: EC50
Measured EC50 values are reported for all entries that follow.

Worked examples, 3 compounds total:
| Compound | EC50 |
| --- | --- |
| Cc1cccc(Oc2ccc(C(=O)N3CCN(Cc4nc5ccc(C(=O)O)cc5n4C[C@@H]4CCO4)CC3)cc2)c1 [Compound 21] | > 500 nM |
| O=C(O)c1ccc2nc(CN3CCC(Oc4ccnc(COc5ccc(F)cc5Cl)n4)CC3)n(C[C@@H]3CCO3)c2n1 [Compound 370] | < 50 nM |
| Cc1ccc(N(C)c2cccc(C(=O)N3CCN(Cc4nc5ccc(C(=O)O)cc5n4C[C@@H]4CCO4)CC3)c2)c(C)c1 [Compound 45] | < 50 nM |

I am curious: what EC50 value has been reported for Cc1ccc(N(C)Cc2cccc(C(=O)N3CCN(Cc4nc5ccc(C(=O)O)cc5n4C[C@@H]4CCO4)CC3)c2)c(Cl)c1 [Example 78] ?
> 500 nM

I am curious: what EC50 value has been reported for N#Cc1ccc(Oc2cccc(C(=O)N3CCN(Cc4nc5ccc(C(=O)O)cc5n4C[C@@H]4CCO4)CC3)c2)c(F)c1 [Example 10] ?
> 500 nM

I am curious: what EC50 value has been reported for O=C(O)c1ccc2nc(CN3CCN(Cc4cc5ccc(-c6ccc(Cl)cc6Cl)cc5o4)CC3)n(C[C@@H]3CCO3)c2c1 [Example 27] ?
> 500 nM

I am curious: what EC50 value has been reported for CCn1cncc1Cn1c(CN2CCC(Oc3ccnc(COc4ccc(Cl)cc4Cl)c3)CC2)nc2ccc(C(=O)O)cc21 [Example 145] ?
< 50 nM

I am curious: what EC50 value has been reported for CCn1cncc1Cn1c(CN2CCC(C(F)(F)c3cccc(COc4ccc(Cl)cc4Cl)c3)CC2)nc2ccc(C(=O)O)cc21 [Compound 161] ?
< 50 nM

I am curious: what EC50 value has been reported for C[C@H]1C[C@@H](Oc2ccnc(COc3ccc(C4CC4)cc3C#N)n2)CCN1Cc1nc2ccc(C(=O)O)cc2n1C[C@@H]1CCO1 [Compound 510] ?
< 50 nM

I am curious: what EC50 value has been reported for Cc1ccc(N(C)c2cc(C(=O)N3CCN(Cc4nc5ccc(C(=O)O)cc5n4C[C@@H]4CCO4)CC3)ccc2F)c(Cl)c1 [Example 95] ?
50 to 500 nM

I am curious: what EC50 value has been reported for CCn1cncc1Cn1c(CN2CCC(Oc3ccnc(COc4ccc(Cl)cc4CO)c3)CC2)nc2ccc(C(=O)O)cc21 [Compound 287] ?
< 50 nM

I am curious: what EC50 value has been reported for N#CCC1(Cn2c(CN3CCC(Oc4ccnc(COc5ccc(F)cc5C#N)n4)CC3)nc3c(F)cc(C(=O)O)cc32)CC1 [Compound 349] ?
< 50 nM

I am curious: what EC50 value has been reported for N#Cc1cc(Cl)ccc1OCc1cccc(CC2CCN(Cc3nc4ccc(C(=O)O)cc4n3C[C@@H]3CCO3)CC2)c1 [Compound 166] ?
< 50 nM

I am curious: what EC50 value has been reported for O=C(O)c1ccc2nc(CN3CCN(C(=O)c4ccc(COc5ccc(Cl)cc5)o4)CC3)n(C[C@@H]3CCO3)c2c1 [Compound 31] ?
> 500 nM

I am curious: what EC50 value has been reported for O=C(O)c1ccc2nc(CN3CCC(Oc4cccc(COc5cccc(Cl)c5Cl)c4)CC3)n(C[C@@H]3CCO3)c2c1 [Compound 243] ?
< 50 nM

I am curious: what EC50 value has been reported for N#Cc1ccc(OCc2nccc(OC3CCN(Cc4nc5ccc(C(=O)O)cc5n4C[C@@H]4CCO4)CC3)n2)c(F)c1 [Example 262] ?
< 50 nM

I am curious: what EC50 value has been reported for O=C(O)c1ccc2nc(CN3CCC(Cc4ccc(F)c(COc5ccc(Cl)cc5Cl)c4)CC3)n(C[C@@H]3CCO3)c2c1 [Compound 162] ?
< 50 nM

I am curious: what EC50 value has been reported for CCn1cncc1Cn1c(CN2CCC(Oc3cccnc3COc3ccc(Cl)cc3Cl)CC2)nc2ccc(C(=O)O)cc21 [Example 271] ?
50 to 500 nM

I am curious: what EC50 value has been reported for O=C(O)c1ccc2nc(CN3CCC(Oc4ccnc(COc5ccc(F)cc5Cl)n4)CC3)n(C[C@H]3CCN3C(=O)c3ccon3)c2c1 [Example 483] ?
< 50 nM

I am curious: what EC50 value has been reported for C[C@H]1C[C@@H](Oc2ccnc(COc3ccc(C#N)cc3Cl)c2)CCN1Cc1nc2ccc(C(=O)O)cc2n1C[C@@H]1CCO1 [Compound 366] ?
< 50 nM

I am curious: what EC50 value has been reported for O=C(O)c1ccc2nc(CN3CCN(C(=O)c4ccc(COc5ccc(Cl)cc5F)o4)CC3)n(C[C@@H]3CCO3)c2c1 [Example 36] ?
> 500 nM

I am curious: what EC50 value has been reported for O=C(O)c1ccc2nc(CN3CCC(Oc4cccc(COc5ccc(Cl)cc5Cl)c4)CC3)n(Cc3cnco3)c2c1 [Example 216] ?
< 50 nM

I am curious: what EC50 value has been reported for O=C(O)c1ccc2nc(CN3CCN(C(=O)c4cccc(Cc5ccc(Cl)cc5Cl)c4)CC3)n(C[C@@H]3CCO3)c2c1 [Compound 48] ?
50 to 500 nM

I am curious: what EC50 value has been reported for CCn1cncc1Cn1c(CN2CCN(C(=O)c3ccc(COc4ccc(C)cc4C)o3)CC2)nc2ccc(C(=O)O)cc21 [Compound 55] ?
< 50 nM

I am curious: what EC50 value has been reported for C[C@H](Oc1ccc(Cl)cc1Cl)c1ccc(C(=O)N2CCN(Cc3nc4ccc(C(=O)O)cc4n3C[C@@H]3CCO3)CC2)o1 (single isomer, unassigned) [Example 96] ?
> 500 nM

I am curious: what EC50 value has been reported for N#CCC1(Cn2c(CN3CCC(Oc4ccnc(COc5ccc(Cl)cc5F)c4)CC3)nc3ccc(C(=O)O)cc32)CC1 [Compound 337] ?
< 50 nM
